Molecular target: human insulin receptor (HIR) (human, UniProt P06213 28-1382, limits assumed)
Experiment: 125I-insulin competition, solubilised HIR
No end group written: not given here.
Parameter Measured: pKd
The value called pKd is obtained by taking minus log10 of the concentration in mol/L.

Below, 5 binders whose answers are already recorded.
| Binder | pKd |
| --- | --- |
| Ac-SLEEEWAQIQEDLYGANHNESFYDWFERQL [S603] | 10.82 |
| SIEEEWAQIKCDVWGRGCPSESFYDWFERQL [S517] | 9.22 |
| LDQEWAAVQCEVYGRGCPSESFYDWFERQL [S499] | 9.21 |
| LDQEWAWVQCEAYGRGCPSESFYDWFERQL [S503] | 8.68 |
| SIEEEWAQIKCDVWGRGCSESFYDWFERQL [S556] | 10.49 |

If you can, please state the reported pKd value of SLEEEWAQIECEVWGRCWHHSFYDWFERQL [S594] .
10.15

Param item = SLEEEWAQIECEVWGRGCPKGFYGWFRRRG [S582] ; retrieve measured pKd.
8.60
